This collection of values is drawn from patent US12599560B2.

# Procedure Details: Particle size and PDI by dynamic light scattering
# Assay type: physicochemical
# Measurement Conditions: Table 2; LNP formulation with mRNA
Endpoint Label: Particle size (nm)

// field: Particle size (nm); key: CCCCCCCCCCCCNC(=O)C(O)CN(CCCN1CCN(CCCN(CC(O)C(=O)NCCCCCCCCCCCC)CC(O)C(=O)NCCCCCCCCCCCC)CC1)CC(O)C(=O)NCCCCCCCCCCCC (stereo not drawn) ; value = 121.87

Briefly, Particle size (nm) measured for CCCCCCCCCCCOC(=O)CCCCCN(CCO)CCCCCCCC(=O)OC(CCCCCCCC)CCCCCCCC [SM-102, reference compound] : 81.71

For CCCCCCCCC(CCCCCC)C(=O)OCCCCCCOC(=O)C(O)CN1CCN(CCN(CC(O)C(=O)OCCCCCCOC(=O)C(CCCCCC)CCCCCCCC)CC(O)C(=O)OCCCCCCOC(=O)C(CCCCCC)CCCCCCCC)CC1 (stereo not drawn) the compound record lists Particle size (nm) as 97.72

Entry CCCC/C=C\CCOCOCCCCOC(=O)C(O)CN(CCN1CCN(CCN(CC(O)C(=O)OCCCCOCOCC/C=C\CCCC)CC(O)C(=O)OCCCCOCOCC/C=C\CCCC)CC1)CCN(CC(O)C(=O)OCCCCOCOCC/C=C\CCCC)CC(O)C(=O)OCCCCOCOCC/C=C\CCCC (stereo not drawn) ; Particle size (nm) = 114.43

// Particle size (nm) lookup, compound = CCCCCCCCC(CCCCCC)C(=O)OCCCCCCOC(=O)C(O)CN(CCCN1CCN(CCCN(CC(O)C(=O)OCCCCCCOC(=O)C(CCCCCC)CCCCCCCC)CC(O)C(=O)OCCCCCCOC(=O)C(CCCCCC)CCCCCCCC)CC1)CC(O)C(=O)OCCCCCCOC(=O)C(CCCCCC)CCCCCCCC (stereo not drawn) , result: 102.47

Sample CC/C=C\CCOCOCCCCCCOC(=O)C(O)CN(CCN1CCN(CCN(CC(O)C(=O)OCCCCCCOCOCC/C=C\CC)CC(O)C(=O)OCCCCCCOCOCC/C=C\CC)CC1)CCN(CC(O)C(=O)OCCCCCCOCOCC/C=C\CC)CC(O)C(=O)OCCCCCCOCOCC/C=C\CC (stereo not drawn) ; Particle size (nm) observed: 119.70

For this compound ( CCCCCCC(CCCCCC)C(=O)OCCCCOC(=O)C(O)CN(CCCN1CCN(CCCN(CC(O)C(=O)OCCCCOC(=O)C(CCCCCC)CCCCCC)CC(O)C(=O)OCCCCOC(=O)C(CCCCCC)CCCCCC)CC1)CC(O)C(=O)OCCCCOC(=O)C(CCCCCC)CCCCCC (stereo not drawn) ), measured Particle size (nm) is 89.18

The compound CCCCCCCCCCCCNC(=O)C(O)CN1CCN(CCN(CC(O)C(=O)NCCCCCCCCCCCC)CC(O)C(=O)NCCCCCCCCCCCC)CC1 (stereo not drawn) showed Particle size (nm) equal to 71.39

Value of measured Particle size (nm) for the entry CCCCCCC(CCCCCC)C(=O)OCCCCOC(=O)C(O)CN1CCN(CCN(CC(O)C(=O)OCCCCOC(=O)C(CCCCCC)CCCCCC)CC(O)C(=O)OCCCCOC(=O)C(CCCCCC)CCCCCC)CC1 (stereo not drawn) : 89.99

Per the records, this compound ( CCCCCCCCCCCCNC(=O)C(O)CN(CCCC(=O)NCCCN1CCN(CCCNC(=O)CCCN(CC(O)C(=O)NCCCCCCCCCCCC)CC(O)C(=O)NCCCCCCCCCCCC)CC1)CC(O)C(=O)NCCCCCCCCCCCC (stereo not drawn) ) has Particle size (nm) equal to 90.79

Record CCCCCCCCCCCCNC(=O)C(O)CN(CCC(=O)NCCCN1CCN(CCCNC(=O)CCN(CC(O)C(=O)NCCCCCCCCCCCC)CC(O)C(=O)NCCCCCCCCCCCC)CC1)CC(O)C(=O)NCCCCCCCCCCCC (stereo not drawn) , field Particle size (nm): 109.10

Record summary for CCCCCCC(CCCCCC)C(=O)OCCCCCCOC(=O)C(O)CN(CCN1CCN(CCN(CC(O)C(=O)OCCCCCCOC(=O)C(CCCCCC)CCCCCC)CC(O)C(=O)OCCCCCCOC(=O)C(CCCCCC)CCCCCC)CC1)CCN(CC(O)C(=O)OCCCCCCOC(=O)C(CCCCCC)CCCCCC)CC(O)C(=O)OCCCCCCOC(=O)C(CCCCCC)CCCCCC (stereo not drawn) : reported Particle size (nm) = 126.73

Lab note: measured Particle size (nm) of CCCCCCCCCCCCNC(=O)C(O)CN(CC(=O)NCCCN1CCN(CCCNC(=O)CN(CC(O)C(=O)NCCCCCCCCCCCC)CC(O)C(=O)NCCCCCCCCCCCC)CC1)CC(O)C(=O)NCCCCCCCCCCCC (stereo not drawn) was 93.86

Given item CCCCCCC(CCCCCC)C(=O)OCCCCCCOC(=O)C(O)CN1CCN(CCN(CC(O)C(=O)OCCCCCCOC(=O)C(CCCCCC)CCCCCC)CC(O)C(=O)OCCCCCCOC(=O)C(CCCCCC)CCCCCC)CC1 (stereo not drawn) , the value recorded as its Particle size (nm) is 80.11

Note to self: Particle size (nm) recorded for CCCCCCCCCCNC(=O)C(O)CN(CCN1CCN(CCN(CC(O)C(=O)NCCCCCCCCCC)CC(O)C(=O)NCCCCCCCCCC)CC1)CCN(CC(O)C(=O)NCCCCCCCCCC)CC(O)C(=O)NCCCCCCCCCC (stereo not drawn) was 90.47
